Numbers sourced from ChEMBL document CHEMBL4513216.

Measured cytotoxicity at 10 µM values are reported for all entries that follow.
assay: Toxicity liver stage against HepG2, at 10uM; format: cell-based; parameters: test concentration 10 uM, cell line HepG2-A16-CD81EGFP; conditions: human, HepG2-A16-CD81EGFP cells; read-out: INHIBITION
Note: unit % is implicit; provide only the numeric part.

Take a look at these entries with their results.
{"molecule": "Cc1cc(C(=O)NC2CCC3(CCC(=O)N3CC3CC3)CC2)no1 (centres undefined)", "unit": "%", "cytotoxicity at 10 µM": -0.39}
{"molecule": "CN(C(=O)c1ccc(C2CCCO2)s1)C1CCS(=O)(=O)CC1 (centres undefined)", "unit": "%", "cytotoxicity at 10 µM": 1.72}
{"molecule": "COc1cccc([C@@H]2N[C@H](c3nccs3)Cc3ccsc32)c1OC", "unit": "%", "cytotoxicity at 10 µM": 5.24}
{"molecule": "Cc1ccc(NC(=O)C2CSCN2C(=O)c2cnccn2)c(C)c1 (centres undefined)", "unit": "%", "cytotoxicity at 10 µM": -8.6}
{"molecule": "Nc1nccnc1C(=O)NCCCNc1ccc(C(F)(F)F)cn1", "unit": "%", "cytotoxicity at 10 µM": -8.16}

QUERY: For the molecule Cc1nc2cc(=O)[nH]n2c(C)c1CC(=O)Nc1ccc2ccccc2n1 , what cytotoxicity at 10 µM is on record?
RESULT: -4.15

QUERY: Please do the same for c1ccc(-c2nc(CN3CCCC3Cn3cncn3)cs2)cc1 (centres undefined) as well.
RESULT: -14

QUERY: And the next one, COCCN(C)CCN1CC2(CCN(C3CCCOC3)CC2)OC1=O (centres undefined) ?
RESULT: -11

QUERY: Entry to check: CC(C)(C)c1nccc(C2(c3ccccc3Cl)CCNCC2)n1
RESULT: -1.15

QUERY: Continue with Cc1cc(CN2CCN(C(C)C)C(CCO)C2)[nH]n1 (centres undefined)
RESULT: 4.86

QUERY: Now the same for O=c1nc(SCc2ccncc2)c2c(n1CCO)CCCC2
RESULT: -23.8

QUERY: # iterate: Cc1cc(Cl)ccc1C(=O)N[C@H]1CN(S(C)(=O)=O)C[C@@H]1C1CC1
RESULT: 8.9

----------
assay: Toxicity liver stage against HepG2, at 10uM; type: cell-based; design: test concentration 10 uM, cell line HepG2-A16-CD81EGFP; conditions: human, HepG2-A16-CD81EGFP cells; read-out: INHIBITION
measured parameter: cytotoxicity at 10 µM (%)
Write it as a number; the unit % goes unstated.

{"molecule": "CN(C(=O)Cc1ccc(NC(=O)NC2CCC2)cc1)c1ccccc1", "measured parameter": "cytotoxicity at 10 µM", "observed": -6.11}
{"molecule": "CSc1nc(N)cc(N2C[C@H]3CC[C@@H](C2)N(Cc2cscn2)C3=O)n1", "measured parameter": "cytotoxicity at 10 µM", "observed": -12}
{"molecule": "COc1ccc(CN(Cc2cnn(C)c2)CC(C)C)cn1", "measured parameter": "cytotoxicity at 10 µM", "observed": -18.4}
{"molecule": "Cn1cc(CCNC(=O)NCc2nnc3n2CCC3)cn1", "measured parameter": "cytotoxicity at 10 µM", "observed": -6.08}
{"molecule": "O=C(c1cnco1)N1CCC(Cc2cccc3ncccc23)CC1", "measured parameter": "cytotoxicity at 10 µM", "observed": 6.79}
{"molecule": "C=Cc1ccc(C(=O)NC2CCCc3nc(N(C)C)ncc32)cc1 (stereo not given)", "measured parameter": "cytotoxicity at 10 µM", "observed": 8.18}
{"molecule": "CCCC1(CO)CCCN(C(=O)CCCn2nc(C)cc2C)C1 (stereo not given)", "measured parameter": "cytotoxicity at 10 µM", "observed": -9.53}
{"molecule": "CNc1nc(CNC(=O)Nc2cccc(CN(C)C)c2)cs1", "measured parameter": "cytotoxicity at 10 µM", "observed": -8.04}

QUERY: Param item = CC(=O)c1ccc(N2CCCC(CO)(Cc3ccccc3C)C2)nc1 (stereo not given) ; retrieve measured cytotoxicity at 10 µM.
RESULT: 10.1

QUERY: Now the molecule O=C(NCCn1ccnc1)N1CCCC1c1cccs1 (stereo not given)
RESULT: -7.51

----------
experiment: Toxicity liver stage against HepG2, at 10uM; assay type: cell-based; design: test concentration 10 uM, cell line HepG2-A16-CD81EGFP; details: human, HepG2-A16-CD81EGFP cells; read-out: INHIBITION
measured parameter: cytotoxicity at 10 µM
# answer = value followed by unit

Consider the worked cases shown below.
{"molecule": "NC(=O)c1ccc(CN2CCCC(N3CCCCCC3)C2)cc1 (stereo not drawn)", "cytotoxicity at 10 µM": "-6.46%"}
{"molecule": "COc1c(F)cc(NC(=O)NCc2nncn2C2CC2)cc1F", "cytotoxicity at 10 µM": "-4.7%"}

Field: next molecule
QUERY: # cytotoxicity at 10 µM lookup, item Cc1nc(N2CCOc3ccc(CO)cc3C2)c2nc(C)oc2n1
RESULT: 7.91%

----------
experiment: Toxicity liver stage against HepG2, at 10uM; assay type: cell-based; parameters: test concentration 10 uM, cell line HepG2-A16-CD81EGFP; details: human, HepG2-A16-CD81EGFP cells; read-out: INHIBITION
measured parameter: cytotoxicity at 10 µM (%)
Provide the reading as a plain figure in %.

Some solved cases for reference:
{"compound": "CSCCCN1C[C@@H]2CC[C@H]1CN(Cc1[nH]cnc1C)C2", "cytotoxicity at 10 µM [%]": 1.2}
{"compound": "COc1ncnc2c1CCN(C(=O)Cc1cccc(F)c1)CC2", "cytotoxicity at 10 µM [%]": 3.88}
{"compound": "CCN(C(=O)NCCc1ccccc1Cl)C(C)CS(C)(=O)=O (configuration not stated)", "cytotoxicity at 10 µM [%]": 8.83}
{"compound": "Cc1nn(C)c(N(C)C)c1CNCCCN(C(C)C)S(C)(=O)=O", "cytotoxicity at 10 µM [%]": 1.07}
{"compound": "Cn1ccnc1-c1ccc(NCC2COc3ccccc3O2)nn1 (configuration not stated)", "cytotoxicity at 10 µM [%]": 3.31}
{"compound": "NC(=O)Cn1cc(NC(=O)N2CCCC2)cn1", "cytotoxicity at 10 µM [%]": -8.67}
{"compound": "CN(C)CCN1CCC2[C@@H]1CCN2Cc1ccc2c(c1)OCO2 (some centres not stated)", "cytotoxicity at 10 µM [%]": -4.28}
{"compound": "O=C1C[C@H]2[C@H](CCN2C(=O)c2cc[nH]n2)N1Cc1cccnc1", "cytotoxicity at 10 µM [%]": 3.03}

QUERY: Give its cytotoxicity at 10 µM value. Item: O=C1CN(c2ccc(CNC(=O)NCCO)cc2)CCN1
RESULT: -2.38

----------
# cytotoxicity at 10 µM annotations
experiment: Toxicity liver stage against HepG2, at 10uM; format: cell-based; set-up: test concentration 10 uM, cell line HepG2-A16-CD81EGFP; settings: human, HepG2-A16-CD81EGFP cells; read-out: INHIBITION
The reply should contain only the number, in %.

{"molecule": "CC(NC(N)=O)C(=O)N(C)CCCc1cc(-c2ccccc2)no1 (stereo not given)", "unit": "%", "cytotoxicity at 10 µM": -1.86}

QUERY: Fill in: cytotoxicity at 10 µM of Cc1occc1CN(C)C(=O)Nc1ccc(=O)n(C)c1 is ___
RESULT: -53.5

QUERY: Also check CSC(C)CCN1CCCn2nc(CNC(=O)C3CCC3)cc2C1 (stereo not given)
RESULT: 0.812

QUERY: Let us now turn to O=C(CC1CCCCC1)N1CCC(c2ncc3c(n2)CCNC3)CC1
RESULT: -8.21

QUERY: Would you mind doing Cc1ccc(CN2CCn3c(CN(C)C(C)C)cnc3C2)s1 as well?
RESULT: 8.33

QUERY: # iterate: CC(NC(=O)CCn1cncn1)c1nnc2n1CCCCC2 (stereo not given)
RESULT: -9.26

QUERY: Then this molecule: O=C(C1=CCCC1)N1CC[C@]2(C[C@H](OCc3cccnc3)CO2)C1
RESULT: 11.7

QUERY: // query: CC(=O)N1CCCN(C(=O)NC(C)Cn2cccn2)CC1 (stereo not given)
RESULT: -13

QUERY: Could you do the same for O=C(NCc1cccnc1)C1=NOC2(CCN(C3CCOCC3)C2)C1 (stereo not given) , please?
RESULT: -1.63

QUERY: Queued: NC(=O)CSc1nnc2[nH]c(=O)c3c(n12)CCCC3
RESULT: -4.44

QUERY: Same question, CC(=O)NCCn1ccc(-c2ccccn2)n1 this time
RESULT: 7.38

QUERY: Also check CCn1c(O)c(C(C)=O)c2cc(C)ccc21
RESULT: -8.24

QUERY: Moving on to NC(=O)C1CCCCN1C(=O)c1ccc(Br)s1 (stereo not given)
RESULT: -6.38

QUERY: // same read-out, input: N#CCCN(CC1CCOC1)Cn1ccc(-c2cccs2)n1 (stereo not given)
RESULT: 10.9

QUERY: Note, next up: CCCNC(=O)c1cc(Br)cc(S(=O)(=O)N2CCOCC2)c1F
RESULT: -5.12

QUERY: Subsequent entry: CCN1C(=O)CCCC12CCCN(C(=O)c1ccncc1F)C2 (stereo not given)
RESULT: -3.27

QUERY: Try this molecule too: Cc1ccoc1C(=O)NC1CCN(Cc2cccc3ccccc23)CC1
RESULT: 0.561

QUERY: Consider next the molecule CCOCCC(=O)N1C[C@@H]2CC[C@H]1CN(c1ncccn1)C2 in the same way.
RESULT: 2.53

QUERY: Ok, now COCC(=O)N[C@H](C)c1onc(-c2ccc(F)cc2)c1C(=O)O
RESULT: -8.15

QUERY: CN1CCC(CN(C)S(=O)(=O)CC2CCCCC2)CC1 ?
RESULT: 0.304
